- assay.method.text: Mean residence time in rat at 10 mg/kg, iv
- Type: ADME, organism-based
- conditions.used: in vivo

{"columns": ["item.smiles", "units.symbol", "MRT"],
 "data": [
  ["CC(C)c1cc(CN2Cc3ccccc3S2(=O)=O)nn1-c1ccc(F)cc1", "h", 1.7]
]}

---

- target.under.test: CYP2C9 (Homo sapiens, UniProt P11712)
- Sequence (P11712 whole entry): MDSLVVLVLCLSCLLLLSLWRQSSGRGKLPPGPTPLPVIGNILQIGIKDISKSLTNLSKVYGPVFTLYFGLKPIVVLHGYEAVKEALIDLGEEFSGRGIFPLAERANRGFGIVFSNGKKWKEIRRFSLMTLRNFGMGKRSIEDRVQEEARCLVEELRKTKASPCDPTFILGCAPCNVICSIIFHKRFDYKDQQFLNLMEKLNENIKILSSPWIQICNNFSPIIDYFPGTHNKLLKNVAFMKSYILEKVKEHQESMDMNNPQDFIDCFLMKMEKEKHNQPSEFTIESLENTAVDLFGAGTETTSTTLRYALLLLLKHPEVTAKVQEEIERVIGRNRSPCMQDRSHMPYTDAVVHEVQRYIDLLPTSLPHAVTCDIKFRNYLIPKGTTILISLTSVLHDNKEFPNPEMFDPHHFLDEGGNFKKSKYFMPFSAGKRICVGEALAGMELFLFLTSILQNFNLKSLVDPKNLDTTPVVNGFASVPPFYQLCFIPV
- assay.method.text: Inhibition of recombinant human CYP2C9 expressed in baculosomes assessed as residual activity at 10 uM using vivid BOMCC/BOMF/OOMR as substrate after 15 mins in presence of NADPH by fluorescence assay relative to control
- Format: ADME
- conditions.used: probe Vivid BOMCC/BOMF/OOMR, read-out: Activity

{"columns": ["item.smiles", "target.under.test", "activity at 0.25 h, 10 µM"],
 "data": [
  ["CC(C)c1cc(CN2Cc3ccccc3S2(=O)=O)nn1-c1ccccc1", "CYP2C9 (Homo sapiens, UniProt P11712)", "14.2%"],
  ["Cc1c(CNS(=O)(=O)c2ccccc2)nn(-c2ccccc2)c1CC(C)C", "CYP2C9 (Homo sapiens, UniProt P11712)", "45.2%"],
  ["CC(C)c1cc(CN2Cc3ccccc3S2(=O)=O)nn1-c1ccc(F)cc1", "CYP2C9 (Homo sapiens, UniProt P11712)", "103%"],
  ["CC(C)c1cc(CN2Cc3ccccc3S2(=O)=O)nn1C(C)(C)C", "CYP2C9 (Homo sapiens, UniProt P11712)", "90.7%"]
]}

---

- assay.method.text: Tmax in rat at 10 mg/kg, po
- Format: ADME, organism-based
- conditions.used: in vivo

{"columns": ["item.smiles", "Tmax / h"],
 "data": [
  ["CC(C)c1cc(CN2Cc3ccccc3S2(=O)=O)nn1-c1ccc(F)cc1", 2.5]
]}

---

- assay.method.text: AUClast in rat at 10 mg/kg, iv
- Assay type: ADME, organism-based
- Design: dose 10 mg/kg, route intravenous, time 0 - last
- conditions.used: in vivo
assay.endpoint: AUC(0-t) (µg·h/mL)

{"columns": ["item.smiles", "assay.endpoint", "observed.result"],
 "data": [
  ["CC(C)c1cc(CN2Cc3ccccc3S2(=O)=O)nn1-c1ccc(F)cc1", "AUC(0-t)", 2.63]
]}

---

- assay.method.text: Ratio of drug level in brain to plasma in rat at 10 mg/kg, po measured at 2 hrs post dose
- Type: ADME, organism-based
- conditions.used: brain and plasma, read-out: BPR
assay.endpoint: Kp at 2 h

{"columns": ["item.smiles", "assay.endpoint", "observed.result"],
 "data": [
  ["CC(C)c1cc(CN2Cc3ccccc3S2(=O)=O)nn1-c1ccc(F)cc1", "Kp at 2 h", 0.13]
]}

---

- assay.method.text: Terminal half-life in rat at 10 mg/kg, po
- Type: ADME, organism-based
- conditions.used: in vivo, read-out: beta t1/2

{"columns": ["item.smiles", "half-life / h"],
 "data": [
  ["CC(C)c1cc(CN2Cc3ccccc3S2(=O)=O)nn1-c1ccc(F)cc1", 1.96]
]}

---

- target.under.test: Voltage-dependent T-type calcium channel subunit alpha-1H (Homo sapiens)
- Sequence (O95180 whole entry): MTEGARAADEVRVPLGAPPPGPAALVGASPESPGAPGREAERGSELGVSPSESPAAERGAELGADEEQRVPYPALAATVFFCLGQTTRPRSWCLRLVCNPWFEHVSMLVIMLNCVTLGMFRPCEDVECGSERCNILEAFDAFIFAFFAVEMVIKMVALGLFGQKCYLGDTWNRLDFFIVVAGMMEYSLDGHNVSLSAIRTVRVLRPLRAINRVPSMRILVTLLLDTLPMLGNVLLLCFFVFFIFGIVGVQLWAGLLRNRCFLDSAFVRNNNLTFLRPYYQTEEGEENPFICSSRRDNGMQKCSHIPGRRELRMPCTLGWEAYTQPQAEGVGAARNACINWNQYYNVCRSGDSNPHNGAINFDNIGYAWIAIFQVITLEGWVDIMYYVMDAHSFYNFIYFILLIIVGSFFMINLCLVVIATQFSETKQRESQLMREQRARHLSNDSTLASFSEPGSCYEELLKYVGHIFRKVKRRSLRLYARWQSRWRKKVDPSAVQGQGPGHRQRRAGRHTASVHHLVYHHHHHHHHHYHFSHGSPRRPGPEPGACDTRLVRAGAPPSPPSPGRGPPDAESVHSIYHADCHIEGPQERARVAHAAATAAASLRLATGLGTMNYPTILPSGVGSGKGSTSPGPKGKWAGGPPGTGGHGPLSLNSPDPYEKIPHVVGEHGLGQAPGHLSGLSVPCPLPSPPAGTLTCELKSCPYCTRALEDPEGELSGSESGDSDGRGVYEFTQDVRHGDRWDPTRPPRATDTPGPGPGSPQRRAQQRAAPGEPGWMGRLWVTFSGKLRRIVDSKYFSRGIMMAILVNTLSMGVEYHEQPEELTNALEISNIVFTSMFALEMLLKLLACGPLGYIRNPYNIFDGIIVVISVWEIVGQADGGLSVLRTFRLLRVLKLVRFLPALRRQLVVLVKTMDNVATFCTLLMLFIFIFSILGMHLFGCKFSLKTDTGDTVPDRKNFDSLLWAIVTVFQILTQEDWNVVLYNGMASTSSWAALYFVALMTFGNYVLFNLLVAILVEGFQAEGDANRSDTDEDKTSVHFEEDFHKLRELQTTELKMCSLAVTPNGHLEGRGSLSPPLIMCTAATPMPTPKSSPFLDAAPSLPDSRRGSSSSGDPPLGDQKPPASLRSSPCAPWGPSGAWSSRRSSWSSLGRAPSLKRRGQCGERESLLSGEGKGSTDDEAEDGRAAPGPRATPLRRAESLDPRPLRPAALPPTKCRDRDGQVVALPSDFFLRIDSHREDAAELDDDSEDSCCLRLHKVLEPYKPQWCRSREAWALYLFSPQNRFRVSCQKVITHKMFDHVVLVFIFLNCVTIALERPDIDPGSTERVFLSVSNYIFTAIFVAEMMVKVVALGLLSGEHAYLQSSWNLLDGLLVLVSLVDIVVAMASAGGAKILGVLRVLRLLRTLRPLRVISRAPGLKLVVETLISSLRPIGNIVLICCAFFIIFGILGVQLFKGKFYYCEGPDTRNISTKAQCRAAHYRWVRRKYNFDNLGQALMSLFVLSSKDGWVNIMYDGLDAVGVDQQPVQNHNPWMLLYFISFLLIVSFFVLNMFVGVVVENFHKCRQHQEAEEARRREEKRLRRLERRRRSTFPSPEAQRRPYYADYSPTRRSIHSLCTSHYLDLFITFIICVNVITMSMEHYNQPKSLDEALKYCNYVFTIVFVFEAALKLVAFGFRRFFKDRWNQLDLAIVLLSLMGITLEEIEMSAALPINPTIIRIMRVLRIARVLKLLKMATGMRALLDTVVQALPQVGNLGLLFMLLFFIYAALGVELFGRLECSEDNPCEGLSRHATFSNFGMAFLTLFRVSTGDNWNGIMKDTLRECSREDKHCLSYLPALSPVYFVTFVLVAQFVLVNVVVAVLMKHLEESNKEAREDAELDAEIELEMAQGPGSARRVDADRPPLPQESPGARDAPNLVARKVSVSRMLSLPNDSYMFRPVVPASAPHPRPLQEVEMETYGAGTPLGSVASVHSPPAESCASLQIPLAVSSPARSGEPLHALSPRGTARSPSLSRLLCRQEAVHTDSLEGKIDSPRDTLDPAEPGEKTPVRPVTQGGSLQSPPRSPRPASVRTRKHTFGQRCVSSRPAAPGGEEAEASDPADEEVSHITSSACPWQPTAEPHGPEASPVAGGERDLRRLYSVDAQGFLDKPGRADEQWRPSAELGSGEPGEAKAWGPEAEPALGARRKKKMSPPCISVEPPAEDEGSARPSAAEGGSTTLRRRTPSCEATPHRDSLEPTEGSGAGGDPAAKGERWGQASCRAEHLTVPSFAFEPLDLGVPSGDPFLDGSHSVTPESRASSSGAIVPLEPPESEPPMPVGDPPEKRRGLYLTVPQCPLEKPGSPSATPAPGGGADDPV
- assay.method.text: Inhibition of Cav3.2 alpha1H (unknown origin) expressed in HEK293 cells assessed as reduction in KCl-induced depolarization mediated intracellular Ca2+ level at 10 uM by fluo3/AM based high throughput screening assay relative to control
- Assay type: cell-based
assay.endpoint: inhibition

{"columns": ["item.smiles", "observed.result"],
 "data": [
  ["CC(C)c1cc(CN2Cc3ccccc3S2(=O)=O)nn1-c1c(Cl)cccc1Cl", "29.5%"],
  ["CC(C)(C)n1nc(CN2Cc3ccccc3S2(=O)=O)cc1-c1ccc(F)cc1", "23.1%"],
  ["CC(C)n1nc(CN2Cc3ccccc3S2(=O)=O)cc1-c1ccccc1", "22.1%"],
  ["CC(C)c1cc(CN2Cc3ccccc3S2(=O)=O)nn1-c1ccc(F)cc1", "71.6%"],
  ["CC(C)(C)n1nc(CN2Cc3ccccc3S2(=O)=O)cc1-c1ccc(C(F)(F)F)cc1", "20.8%"],
  ["CC(C)Cc1cc(CN(C)S(=O)(=O)c2ccccc2)nn1-c1ccccc1", "54.2%"],
  ["CC(C)(C)n1nc(CN2Cc3ccccc3S2(=O)=O)cc1-c1ccc(C2CCCCC2)cc1", "9.86%"],
  ["CC(C)c1cc(CN2Cc3ccccc3S2(=O)=O)nn1-c1ccccc1", "75.5%"],
  ["CC(C)(C)n1nc(CN2Cc3ccccc3S2(=O)=O)cc1-c1ccccc1", "18.7%"],
  ["CC(C)n1nc(CN2Cc3ccccc3S2(=O)=O)cc1-c1ccc(F)cc1", "16.5%"]
]}
